biological target: Recombinant human Farnesyl Pyrophosphate synthase (FPPS) (Homo sapiens); construct: made in house; test: FPPS enzyme assay, scintillation proximity (FlashPlate); type: biochemical
Sequence (P14324 67-419): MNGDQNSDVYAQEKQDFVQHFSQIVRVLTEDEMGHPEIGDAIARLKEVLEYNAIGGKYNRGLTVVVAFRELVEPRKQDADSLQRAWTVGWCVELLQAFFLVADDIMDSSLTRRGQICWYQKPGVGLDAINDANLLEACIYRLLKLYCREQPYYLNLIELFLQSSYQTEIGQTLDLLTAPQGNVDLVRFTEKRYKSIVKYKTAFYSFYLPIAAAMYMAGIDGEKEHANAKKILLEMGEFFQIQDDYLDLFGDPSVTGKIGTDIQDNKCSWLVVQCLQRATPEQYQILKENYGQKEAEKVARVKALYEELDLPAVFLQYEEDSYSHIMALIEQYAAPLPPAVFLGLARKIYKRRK
MEASURE: pIC50
Recall that pIC50 is obtained by taking minus log10 of the concentration measured in molar.

Item: `O=C(O)c1ccc2cccc(-c3cccc4[nH]ccc34)c2n1` | pIC50: 5.19

* * *

Answer each item with its documented IC50.
target: Recombinant human Farnesyl Pyrophosphate synthase (FPPS) (Homo sapiens); construct: made in house; assay: FPPS enzyme assay, scintillation proximity (FlashPlate); assay type: biochemical; settings: FlashPlate SPA; GPP 150 nM, [3H]-IPP 150 nM, FPPS 500 pM, 45 minutes at room temperature; highest concentration tested 100 μM; read-out: FPPS IC50
Write it as a number; the unit nM goes unstated.

Record COC(=O)C(CNC(=O)c1ccc2cccc(-c3cccc4ccccc34)c2n1)NS(N)(=O)=O (racemic) ; system Recombinant human Farnesyl Pyrophosphate synthase (FPPS) (Homo sapiens); IC50 = 39700

Record COC(=O)C(CNC(=O)c1ccc2cccc(-c3cccc4ccccc34)c2n1)NS(=O)(=O)NC(=O)OC(C)(C)C (racemic) ; system Recombinant human Farnesyl Pyrophosphate synthase (FPPS) (Homo sapiens); IC50 = 13500

Record `O=C(O)c1ccc2cc(Cl)cc(-c3cccc4ccccc34)c2n1` ; system Recombinant human Farnesyl Pyrophosphate synthase (FPPS) (Homo sapiens); IC50 = 340

Record `O=C(O)c1ccc2cccc(-c3cccc4ccccc34)c2n1` ; system Recombinant human Farnesyl Pyrophosphate synthase (FPPS) (Homo sapiens); IC50 = 520

Record `O=P(O)(O)CCc1ccc2cccc(-c3cccc4ccccc34)c2n1` ; system Recombinant human Farnesyl Pyrophosphate synthase (FPPS) (Homo sapiens); IC50 = 2300

Record `O=C(O)c1ccc2cccc(-c3cccc4ncccc34)c2n1` ; system Recombinant human Farnesyl Pyrophosphate synthase (FPPS) (Homo sapiens); IC50 = 2700

Record `O=P(O)(O)CNc1ccc2cccc(-c3cccc4ccccc34)c2n1` ; system Recombinant human Farnesyl Pyrophosphate synthase (FPPS) (Homo sapiens); IC50 = 4100

Record `O=P(O)(O)/C=C/c1ccc2cccc(-c3cccc4ccccc34)c2n1` ; system Recombinant human Farnesyl Pyrophosphate synthase (FPPS) (Homo sapiens); IC50 = 7

Record `O=P(O)(O)CNc1ccc2cc(-c3cccnc3)cc(-c3cccc4ccccc34)c2n1` ; system Recombinant human Farnesyl Pyrophosphate synthase (FPPS) (Homo sapiens); IC50 = 2800

Record `O=C(O)c1ccc2cc(-c3ccc[nH]3)cc(-c3cccc4ccccc34)c2n1` ; system Recombinant human Farnesyl Pyrophosphate synthase (FPPS) (Homo sapiens); IC50 = 140

Record `CCOP(=O)(CNc1ccc2cc(-c3cccnc3)cc(-c3cccc4ccccc34)c2n1)OCC` ; system Recombinant human Farnesyl Pyrophosphate synthase (FPPS) (Homo sapiens); IC50 = 2800

Record `O=[N+]([O-])c1cc(-c2cccc3ccccc23)c2nc(NCP(=O)(O)O)ccc2c1` ; system Recombinant human Farnesyl Pyrophosphate synthase (FPPS) (Homo sapiens); IC50 = 14000
